Target: T1, B Lymphocyte Stimulator, soluble form (human) (human, UniProt Q9Y275 134-285, biotinylated with NHS-biotin where used as biotinylated B Lymphocyte Stimulator)
T1 construct: Coated on plastic, captured on streptavidin plates, amine-coupled to a CM5 chip or free in solution, depending on the assay; also called BLyS; immobilized B Lymphocyte Stimulator
Experiment: phage ELISA
PROPERTY_LABEL: binding result

BINDER: I078H08 (scFv) scFv: QVQLVQSAAEVKKPGASVKVSCKASGYTFTSYGISWVRQAPGQGLEWMGWISAYNGNTNYAQKLQGRVTMTTDTSTSTAYMELRSLRSDDTAVYYCARVYYDILTGYNLFFDYWGRGTTVTVSSGGGGSGGGGSGGGGSQSVLTQPASVSGSPGQSITISCTGTSSDVGGYNYVSWYQQHPGKAPKLMIYEGSKRPSGVSNRFSGSKSGNTASLTISGLQAEDEADYYCSSYTTRSTRVFGGGTKLTVLG
PROPERTY_LABEL: binding result
ASSAY_VALUE: binds
//
BINDER: I030A10 (scFv) scFv: QVQLVQSGAEVKKPGSSVKVSCRASGGSFNHAISWVRQAPGRGLEWMGGILPMYGTANYAQKFQGRVTITADKLTNTVYMDLSRLRYEDTAVYYCARELGLSIVGATTGALDMWGRGTLVTVSSGGGGSGGGGSGGGGSAQAVLTQPSSVSGAPGQRVIISCTGSSSNIGPDYDVHWYQQLPGTAPKLLIYGNNNRPSGVPDRFSGSKSGTSASLAITGLQAEDEAHYYCQSYGSSLSGVVFGGGTKVTVLG
PROPERTY_LABEL: binding result
ASSAY_VALUE: binds
